In this section, each of the compounds is paired with its reported melting point.

{"compound": "CCCC(=O)NCCCc1nc(-c2nc(C)cs2)c(-c2ccc3c(c2)OCO3)[nH]1 [Compound 30]", "melting point": "134.5 to 138.5 °C"}

Form field melting point, entry Cc1csc(-c2nc(CNC(=O)CN)[nH]c2-c2ccc3ncsc3c2)n1 [Compound 120] : 214.5 to 215 °C

Form field melting point, entry Cc1csc(-c2nc(-c3ccc(C(N)=O)cc3)[nH]c2-c2ccc(F)cc2)n1 [Compound 18] : 281 to 281.5 °C

Form field melting point, entry Cc1csc(-c2nc(CNC(=O)N3CCOCC3)[nH]c2-c2ccc3ncsc3c2)n1 [Compound 185] : 205.5 to 206 °C

Form field melting point, entry Cc1csc(-c2nc(CNC(=O)CC(C)C)[nH]c2-c2ccc3ncsc3c2)n1 [Compound 107] : 160 to 160.5 °C

Form field melting point, entry Cc1csc(-c2nc(CNC(=O)OCC(C)C)[nH]c2-c2ccc3ncsc3c2)n1 [Compound 194] : 142.5 to 144 °C

Form field melting point, entry Cc1csc(-c2nc(CCC(=O)N3CCOCC3)[nH]c2-c2ccc3c(c2)OCO3)n1 [Compound 161] : 216.5 to 218 °C

Form field melting point, entry COCCCNC(=O)CCc1nc(-c2nc(C)cs2)c(-c2ccc3ncsc3c2)[nH]1 [Compound 164] : 144.5 to 145 °C

* * *

In this section, each of the molecules is paired with its reported melting point.

Examples from the recorded data:
{"molecule": "CCCNC(=O)NCc1nc(-c2nc(C)cs2)c(-c2ccc3ncsc3c2)[nH]1 [Compound 177]", "test_value": "179.5 to 182 °C"}
{"molecule": "Cc1csc(-c2nc(C3CCC(=O)N3)[nH]c2-c2ccc3ncsc3c2)n1 (stereo not drawn) [Compound 229]", "test_value": "273 to 275 °C (dec.)"}
{"molecule": "CC(=O)c1nc(-c2nc(-c3ccc(C(N)=O)cc3)[nH]c2-c2ccc3c(c2)OCO3)cs1 [Compound 7]", "test_value": "153 to 159 °C"}
{"molecule": "NC(=O)c1ccc(-c2nc(-c3nccs3)c(-c3ccccn3)[nH]2)cc1 [Compound 4]", "test_value": "255.5 to 256 °C"}

Form field melting point, entry Cc1csc(C(=O)C(=O)c2ccc3c(c2)OCO3)n1 [Compound 203] : 131.5 to 132.5 °C

Form field melting point, entry Cc1csc(-c2nc(CNC(=O)OCCCl)[nH]c2-c2ccc3ncsc3c2)n1 [Compound 188] : 202 to 204 °C (dec.)

Form field melting point, entry Cc1csc(-c2nc(CNC(=O)CCCN(C)C)[nH]c2-c2ccc3ncsc3c2)n1 [Compound 116] : 200.5 to 205.5 °C

Form field melting point, entry Cc1csc(C#Cc2ccc(F)cc2)n1 [Compound 219] : 82 to 83 °C

Form field melting point, entry COCCC(=O)NCc1nc(-c2nc(C)cs2)c(-c2ccc3ncsc3c2)[nH]1 [Compound 127] : 154.5 to 155.5 °C

* * *

Where a name gives a salt, the structure may show the parent alone.
In this section, each of the compounds is paired with its reported melting point.

{"compound": "Cc1csc(C#Cc2ccc3c(c2)OCO3)n1 [Compound 217]", "melting point": "111.5 to 112 °C"}
{"compound": "CCCNC(=O)CCCc1nc(-c2nc(C)cs2)c(-c2ccc3c(c2)OCO3)[nH]1 [Compound 40]", "melting point": "75 to 79 °C"}
{"compound": "CCCCNC(=O)c1nc(-c2nc(C)cs2)c(-c2ccc3ncsc3c2)[nH]1 [Compound 140]", "melting point": "209.5 to 212.5 °C"}
{"compound": "CCCCOC(=O)NCc1nc(-c2nc(C)cs2)c(-c2ccc3ncsc3c2)[nH]1 [Compound 193]", "melting point": "161 to 162 °C"}
{"compound": "Cc1csc(-c2nc(CNC(=O)NC3CCCC3)[nH]c2-c2ccc3ncsc3c2)n1 [Compound 183]", "melting point": "185.5 to 188 °C"}
{"compound": "Cc1csc(-c2nc(CNC(=O)C3CCCO3)[nH]c2-c2ccc3ncsc3c2)n1 (stereo not drawn) [Compound 130]", "melting point": "185 to 185.5 °C"}
{"compound": "Cc1csc(-c2nc(CCN)[nH]c2-c2ccc3c(c2)OCO3)n1 [Compound 27]", "melting point": "155.5 to 157.5 °C"}
{"compound": "CCC(CC)c1nc(-c2nc(C)cs2)c(-c2ccc3ncsc3c2)[nH]1 (as salt: HCl) [Compound 62]", "melting point": "207 to 212 °C"}

Form field melting point, entry N#Cc1ccc(-c2nc(-c3nccs3)c(-c3ccccn3)n2O)cc1 [Compound 202] : 248 to 251 °C (dec.)

Form field melting point, entry Cc1nc(-c2nc(C(F)(F)F)cs2)c(-c2ccc3ncsc3c2)[nH]1 [Compound 244] : 190.5 to 192 °C

Form field melting point, entry COCCOCC(=O)NCc1nc(-c2nc(C)cs2)c(-c2ccc3ncsc3c2)[nH]1 [Compound 123] : 134 to 135.5 °C

Form field melting point, entry CCCC(=O)NCCCCc1nc(-c2nc(C)cs2)c(-c2ccc3c(c2)OCO3)[nH]1 [Compound 33] : 132 to 133 °C

Form field melting point, entry Cc1csc(-c2nc(CCC(=O)NC(C)C)[nH]c2-c2ccc3ncsc3c2)n1 [Compound 145] : 217.5 to 218 °C

Form field melting point, entry Cc1csc(-c2nc(CCC(=O)N3CCN(CCN(C)C)CC3)[nH]c2-c2ccc3ncsc3c2)n1 [Compound 158] : 169.5 to 172 °C

Form field melting point, entry CCCC(=O)NCc1nc(-c2nc(C)cs2)c(-c2ccc(O)cc2)[nH]1 [Compound 101] : 135.5 to 136.5 °C

Form field melting point, entry COc1ccc(CNC(=O)CCCCc2nc(-c3nc(C)cs3)c(-c3ccc4c(c3)OCO4)[nH]2)cc1 [Compound 44] : 174 to 175 °C

* * *

Where a name gives a salt, the structure may show the parent alone.
In this section, each of the compounds is paired with its reported melting point.

Form field melting point, entry `Cc1csc(-c2nc(CNC(=O)C(C)(C)C)[nH]c2-c2ccc3ncsc3c2)n1` : 229 to 229.5 °C

Form field melting point, entry `COCCOc1ccc(Cn2c(C)nc(-c3nc(C)cs3)c2-c2ccc3ncsc3c2)cc1` : 129.5 to 131 °C

Form field melting point, entry `CC(=O)Nc1nc(-c2nc(C)cs2)c(-c2ccc3c(c2)OCO3)[nH]1` : 169 to 173 °C

Form field melting point, entry `Cc1csc(-c2nc(CNC(=O)OCC(C)(C)C)[nH]c2-c2ccc3ncsc3c2)n1` : 170.5 to 171.5 °C

Form field melting point, entry CCN(CC)C(=O)OCc1nc(-c2nc(C)cs2)c(-c2ccc3ncsc3c2)[nH]1 (as salt: HCl) : 119 to 124 °C

* * *

In this section, each of the compounds is paired with its reported IC50.
test system: Smad2/3 phosphorylation caused by TGF-β1 stimulation; test: Smad2/3 phosphorylation inhibitory activity test; format: cell-based; settings: Homo sapiens; A549 cells; compound 2 hours before TGF-β1 1 ng/ml, 1 hour; anti-Smad2/3 immunoprecipitation, Western blotting
Record the value in nM, omitting the unit from your answer.

{"input_smiles": "CCCC(=O)CCc1nc(-c2nc(C)cs2)c(-c2ccc3ncsc3c2)[nH]1", "units_of_measure": "nM", "IC50": 42}
{"input_smiles": "Cc1csc(-c2nc(C)[nH]c2-c2ccc3ncsc3c2)n1", "units_of_measure": "nM", "IC50": 24}
{"input_smiles": "Cc1csc(-c2nc(CNC(=O)C3CCOCC3)[nH]c2-c2ccc3ncsc3c2)n1", "units_of_measure": "nM", "IC50": 107}

Form field IC50, entry `Cc1csc(-c2nc(N)[nH]c2-c2ccc3ncsc3c2)n1` : 31

* * *

system: Smad2/3 phosphorylation caused by TGF-β1 stimulation; experiment: Smad2/3 phosphorylation inhibitory activity test; type: cell-based; conditions: Homo sapiens; A549 cells; compound 2 hours before TGF-β1 1 ng/ml, 1 hour; anti-Smad2/3 immunoprecipitation, Western blotting
readout_name: IC50 (nM)
Record the value in nM, omitting the unit from your answer.

Form field IC50, entry `C#CCOC(=O)NCc1nc(-c2nc(C)cs2)c(-c2ccc3ncsc3c2)[nH]1` : 31

Form field IC50, entry `Cc1csc(-c2nc(COC(=O)N(C)C)[nH]c2-c2ccc3ncsc3c2)n1` : 70

Form field IC50, entry CCCC(O)CCc1nc(-c2nc(C)cs2)c(-c2ccc3ncsc3c2)[nH]1 (centres unmarked) : 52

Form field IC50, entry `Cc1csc(-c2nc(CN3CCOC3=O)[nH]c2-c2ccc3ncsc3c2)n1` : 92

Form field IC50, entry `CCNC(=O)OCc1nc(-c2nc(C)cs2)c(-c2ccc3ncsc3c2)[nH]1` : 93
